Quick list: GI50 per entry.
Tested on: DU-145 prostate
protocol-notes: NCI tumour cell line growth inhibition, 48 h

Example results:
> print(dat)
                      smiles.representation  observed
1                 CN(C)c1nc(=NCc2ccncc2)ss1  > 100 µM
2  CCN(CC)S(=O)(=O)c1ccc(OC)c(Nc2ncc(-c3ccccc3)o2)c1   > 25 µM
3  Nc1ccn(Cc2ccc(C34CC5CC(CC(C5)C3)C4)c(O)c2)c(=O)n1  > 100 µM
4  Cc1sc(C(=O)Nc2cc(C(=O)NCCCN(C)C)n(C)c2)cc1NC(=O)CCCN1C(=O)c2cccc3cccc(c23)C1=O  > 100 µM

Fill blank: measured GI50 of the molecule COc1ccc(C(=O)/C=C/c2ccc(/C=C/c3cc(OC)c(OC)c(OC)c3)cc2)cc1 is ____.
10.2 µM

----------
Test system: K-562 leukemia
protocol-notes: NCI tumour cell line growth inhibition, 48 h
Quick list: TGI per entry.
Report as a plain number; the unit µM is understood.

compound	TGI [µM]
CC(C)(C)C[C@H]1NC(C(=O)NCC[C@H](O)CO)[C@H](c2cccc(Cl)c2)[C@@]12C(=O)Nc1cc(Cl)c(F)cc12 (stereo partly drawn)	43.6
COC(=O)[C@]12CC[C@@H](C)[C@H](C)[C@@H]1C1=CC[C@@H]3[C@@]4(C)C[C@@H](OC(C)=O)[C@H](O)[C@@](C)(COC(C)=O)[C@@H]4[C@H](O)C[C@@]3(C)[C@]1(C)CC2	6.06
COc1ccc(/C(=N/O)c2ccccc2-c2nc3ccccc3c(=O)n2-c2ccc(S(=O)(=O)Nc3ncccn3)cc2)cc1C	21.6

In the following, a different compound is considered.
Request: TGI, test system K-562 leukemia, entry COc1ccc2c(c1)C(O)(C(F)(F)F)c1cc(C(=O)C(F)(F)F)c3ccccc3c1N2 (stereo not drawn)
15.7

----------
Quick list: GI50 per entry.
Tested on: MCF7 breast
protocol-notes: NCI tumour cell line growth inhibition, 48 h

Example results:
compound	assay-system	observed
CC/C=C\C=C/C(=O)N/C=C/CC1Cc2cccc(O)c2C(=O)O1 (stereo not drawn)	MCF7 breast	3.87 µM
COC(=O)[C@]12CC[C@@H](C)[C@H](C)[C@@H]1C1=CC[C@@H]3[C@@]4(C)C[C@@H](OC(C)=O)[C@H](O)[C@@](C)(COC(C)=O)[C@@H]4[C@H](O)C[C@@]3(C)[C@]1(C)CC2	MCF7 breast	2.01 µM
COc1ccc2c(c1)O/C(=C\c1cccc(OCC(=O)Nc3nc4c(s3)CCCC4)c1)C2=O	MCF7 breast	12.8 µM
Nc1c(C(=O)Nc2cccc([N+](=O)[O-])c2)sc2nc3c(cc12)C(O)CCC3 (stereo not drawn)	MCF7 breast	3.14 µM
O=C1OC(=O)C(c2c[nH]c3ccccc23)=C1c1c[nH]c2ccccc12	MCF7 breast	> 25 µM
COc1ccc2nc3cc([N+](=O)[O-])ccc3c(NCCCCCN(C)C)c2c1	MCF7 breast	0.0514 µM
CNC(=O)n1ccc2cc(Oc3ccnc(NC(=O)c4ccc(C5CCN(CCO)CC5)cc4)c3)c(OCCOC)cc21	MCF7 breast	4.33 µM

In the following, a different compound is considered.
Fill blank: measured GI50 of the compound COC(=O)[C@H](Cc1cn(C)cn1)NC(=O)[C@H](Cc1c[nH]c2ccccc12)NC(=O)Nc1cc(C(F)(F)F)cc(C(F)(F)F)c1 is ____.
> 10 µM
